biological target: Serine/threonine-protein kinase PAK 4 (Homo sapiens)
Sequence (O96013 whole entry): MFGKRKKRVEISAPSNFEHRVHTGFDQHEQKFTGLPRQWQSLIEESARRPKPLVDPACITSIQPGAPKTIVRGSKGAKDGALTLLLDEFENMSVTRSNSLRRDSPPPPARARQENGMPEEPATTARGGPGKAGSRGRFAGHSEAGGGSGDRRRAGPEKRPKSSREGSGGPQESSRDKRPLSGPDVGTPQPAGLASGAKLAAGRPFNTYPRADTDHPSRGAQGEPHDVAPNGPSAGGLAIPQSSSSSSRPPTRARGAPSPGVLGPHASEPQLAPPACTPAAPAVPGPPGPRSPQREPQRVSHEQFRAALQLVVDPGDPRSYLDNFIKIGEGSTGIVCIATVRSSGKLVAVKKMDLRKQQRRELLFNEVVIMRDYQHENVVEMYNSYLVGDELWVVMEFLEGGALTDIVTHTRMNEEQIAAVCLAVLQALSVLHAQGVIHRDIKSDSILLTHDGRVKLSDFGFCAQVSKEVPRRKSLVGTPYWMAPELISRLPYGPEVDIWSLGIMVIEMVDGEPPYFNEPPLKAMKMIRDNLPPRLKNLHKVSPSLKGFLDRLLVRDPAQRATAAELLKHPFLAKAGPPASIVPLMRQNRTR
pIC50: −log10 of the molar value.

{"COMPOUND_SMILES": "COc1ncc(F)cc1CNc1ccc(Cc2c[nH]c3ncc(C)cc23)c(F)n1", "pIC50": "< 6.00"}

###

test: AUC (0 to infinity) in male rat at 1.13 mg/kg, iv administered as single dose; format: ADME, organism-based; conditions: in vivo

{"COMPOUND": "COc1ncc(F)cc1CNc1ccc(Cc2c[nH]c3ncc(C)cc23)c(F)n1 [PLX-5622]", "AUC(0-inf) / ng·h/mL": 2630}
